target: T1, Cynomolgus monkey BCMA (cynomolgus monkey); experiment: SPR, IgG immobilised, cyno BCMA analyte
T1 construct: Soluble analyte in SPR; also called cyBCMA; Cyno BCMA
readout: koff (s⁻¹)
// note: answer is a bare numeric in s⁻¹

Some solved entries appear below for comparison.
A02_Rd4_6nM_C07 (antibody, V domains shown, IgG) VH: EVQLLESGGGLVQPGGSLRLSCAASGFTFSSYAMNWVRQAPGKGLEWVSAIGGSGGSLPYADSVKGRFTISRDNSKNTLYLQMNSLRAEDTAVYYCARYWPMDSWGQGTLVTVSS VL: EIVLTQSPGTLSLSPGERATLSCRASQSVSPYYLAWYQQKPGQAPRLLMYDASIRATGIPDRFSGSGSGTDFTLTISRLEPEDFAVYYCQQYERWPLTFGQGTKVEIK; 0.000786
A02_Rd4_0.6nM_C18 (antibody, V domains shown, IgG) VH: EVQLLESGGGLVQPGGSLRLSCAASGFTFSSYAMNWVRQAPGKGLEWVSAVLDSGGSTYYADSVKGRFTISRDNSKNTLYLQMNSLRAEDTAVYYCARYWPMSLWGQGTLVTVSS VL: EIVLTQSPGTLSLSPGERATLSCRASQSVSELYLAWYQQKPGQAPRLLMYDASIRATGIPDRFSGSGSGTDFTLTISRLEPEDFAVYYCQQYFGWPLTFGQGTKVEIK; 0.000639

QUERY: What value of measured koff is listed for COMBO_Rd4_0.6nM_C30 (antibody, V domains shown, IgG) VH: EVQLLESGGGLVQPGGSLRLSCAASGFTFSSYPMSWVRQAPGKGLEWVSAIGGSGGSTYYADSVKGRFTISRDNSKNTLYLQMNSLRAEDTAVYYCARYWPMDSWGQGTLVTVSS VL: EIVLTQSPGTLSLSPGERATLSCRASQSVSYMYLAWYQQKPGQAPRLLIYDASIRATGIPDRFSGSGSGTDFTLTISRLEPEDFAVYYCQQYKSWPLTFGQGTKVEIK ?
RESULT: 0.000808

From: patent US20160297884A1
